Catalogue of pIC50 values
tested-on: GST-tagged recombinant full-length human Pim-2 (Homo sapiens)
Construct: GST-tagged recombinant full-length human Pim-2; GST
Sequence (Q9P1W9 whole entry): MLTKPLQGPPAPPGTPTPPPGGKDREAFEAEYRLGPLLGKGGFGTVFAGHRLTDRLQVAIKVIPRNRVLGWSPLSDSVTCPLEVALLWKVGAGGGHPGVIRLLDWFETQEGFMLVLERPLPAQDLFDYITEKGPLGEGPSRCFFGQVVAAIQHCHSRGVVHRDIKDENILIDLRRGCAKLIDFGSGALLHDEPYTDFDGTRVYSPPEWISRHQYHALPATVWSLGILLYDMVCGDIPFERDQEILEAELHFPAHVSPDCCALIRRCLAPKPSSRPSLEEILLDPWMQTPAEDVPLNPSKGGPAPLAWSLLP
experiment-notes: PIM-2 Assay (as Example A)
condition-summary: averaged IC50; 4 μM ATP, 1.0 μM PIM2tide, 1.5 nM Pim-2
pIC50: −log10 of the molar value. Structures can show the parent of a compound that is named as a salt.

Example compounds with recorded pIC50:
>  <compound>
COCCOc1c(F)ccc2ccc(-c3nnc4ccc([C@@H](N5CC[C@H](N)C5)C(F)(F)F)cn34)nc12 [Example 108, hydrochloride]

>  <pIC50>
< 7.00

$$$$
>  <compound>
Cc1cnn(-c2ccc3ccc(-c4nnc5ccc([C@@H](N6CC[C@H](N)C6)C(F)(F)F)cn45)nc3c2C)c1 [Example 190, dihydrochloride]

>  <pIC50>
< 7.00

$$$$
>  <compound>
COc1cccc2ccc(-c3nnc4ccc([C@@H](N5CC[C@@](N)(CF)C5)C(F)(F)F)cn34)nc12 (single isomer, unassigned) [Example 169]

>  <pIC50>
< 7.00

$$$$

*Q* // lookup pIC50 for CC(C)C(=O)Nc1ccc2ccc(-c3nnc4ccc([C@@H](N5CC[C@H](N)C5)C(F)(F)F)cn34)nc2c1 [Example 70]
*A* < 7.00

*Q* Also check CC(C)Oc1c(C#N)ccc2ccc(-c3nnc4ccc([C@@H](N5CC[C@H](N)C5)C(F)(F)F)cn34)nc12 [Example 75, dihydrochloride]
*A* < 7.00

*Q* Also check COCCOc1ccc2ccc(-c3nnc4ccc([C@@H](N5CC[C@](C)(N)C5)C(F)(F)F)cn34)nc2c1 [Example 261, dihydrochloride]
*A* < 6.00

*Q* Also check N[C@H]1CCN(C(c2ccc3nnc(-c4ccc5ccc(C(F)(F)F)cc5n4)n3c2)C(F)(F)F)C1 (stereo partly shown) [Example 29, dihydrochloride]
*A* < 6.00

* * *

tested-on: PIM-1 (Homo sapiens)
Sequence (P11309 whole entry, species assumed): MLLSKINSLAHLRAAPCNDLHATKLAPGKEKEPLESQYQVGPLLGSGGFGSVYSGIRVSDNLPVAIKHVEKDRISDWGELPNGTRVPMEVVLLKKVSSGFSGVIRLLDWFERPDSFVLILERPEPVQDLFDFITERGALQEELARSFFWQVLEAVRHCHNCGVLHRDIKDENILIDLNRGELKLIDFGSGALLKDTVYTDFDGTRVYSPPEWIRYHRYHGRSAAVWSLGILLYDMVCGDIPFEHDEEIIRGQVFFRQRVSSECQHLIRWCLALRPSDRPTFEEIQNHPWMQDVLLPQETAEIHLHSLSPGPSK
Where a name gives a salt, the structure may show the parent alone.
measured-attribute: IC50 (nM)

Example compounds with recorded IC50:
>  <compound>
CC(C)c1cccc2ccc(-c3nnc4ccc([C@@H](N5CC[C@H](N)C5)C(F)(F)F)cn34)nc12 [Example 41, dihydrochloride]

>  <unit-string>
nM

>  <IC50>
0.11

$$$$
>  <compound>
CCc1cccc2ccc(-c3nnc4ccc([C@@H](N5CC[C@H](N)C5)C(F)(F)F)cn34)nc12 [Example 37, dihydrochloride]

>  <unit-string>
nM

>  <IC50>
0.11

$$$$
>  <compound>
CCOc1ccc2ccc(-c3nnc4ccc([C@H](N5CC[C@H](N)C5)C(F)(F)F)cn34)nc2c1 [Example 256, dihydrochloride]

>  <unit-string>
nM

>  <IC50>
0.58

$$$$
>  <compound>
COCCc1ccc2ccc(-c3nnc4ccc([C@H](N5CC[C@](C)(N)C5)C(F)(F)F)cn34)nc2c1 [Example 300, dihydrochloride]

>  <unit-string>
nM

>  <IC50>
0.36

$$$$
>  <compound>
C[C@H](O)COc1cccc2ccc(-c3nnc4ccc([C@@H](N5CC[C@H](N)C5)C(F)(F)F)cn34)nc12 [Example 187, dihydrochloride]

>  <unit-string>
nM

>  <IC50>
0.37

$$$$

[1] CC(C)(O)Cc1cc2nc(-c3nnc4ccc([C@@H](N5CC[C@H](N)C5)C(F)(F)F)cn34)ccc2cc1F [Example 236, dihydrochloride]
[2] N#CCOc1cccc2ccc(-c3nnc4ccc([C@@H](N5CC[C@H](N)C5)C(F)(F)F)cn34)nc12 [Example 270, formate]
[3] CN(C)C(=O)Cc1cccc2ccc(-c3nnc4ccc([C@@H](N5CC[C@H](N)C5)C(F)(F)F)cn34)nc12 [Example 234, dihydrochloride]
[4] COc1ccc2ccc(-c3nnc4ccc([C@@H](N5CC[C@H](N)C5)C(F)(F)F)cn34)nc2c1Cl [Example 175, hydrochloride]
[5] COc1cccc2ccc(-c3nnc4ccc([C@@H](N5CC[C@@](C)(N)C5)C(F)(F)F)cn34)nc12 [Example 240, dihydrochloride]
*Q* Sort ascending by IC50. Present the labels in the sequence the task asks for.
*A* 2, 4, 1, 5, 3
(2: 0.38 nM, 4: 0.7 nM, 1: 1.08 nM, 5: 2.37 nM, 3: 8.22 nM)

* * *

tested-on: GST-tagged recombinant full-length human Pim-2 (Homo sapiens)
Construct: GST-tagged recombinant full-length human Pim-2; GST
experiment-notes: PIM-2 Assay (as Example A)
condition-summary: averaged IC50; 4 μM ATP, 1.0 μM PIM2tide, 1.5 nM Pim-2
pIC50: −log10 of the molar value. Where a name gives a salt, the structure may show the parent alone.
Catalogue of pIC50 values

Example compounds with recorded pIC50:
>  <compound>
COc1ccc2ccc(-c3nnc4ccc([C@@H](N5CC[C@H](N)C5)C(F)(F)F)cn34)nc2c1 [Example 139, dihydrochloride]

>  <tested-on>
GST-tagged recombinant full-length human Pim-2 (Homo sapiens)

>  <pIC50>
< 7.00

$$$$
>  <compound>
N#Cc1ccc2ccc(-c3nnc4ccc([C@@H](N5CC[C@H](N)C5)C(F)(F)F)cn34)nc2c1

>  <tested-on>
GST-tagged recombinant full-length human Pim-2 (Homo sapiens)

>  <pIC50>
< 7.00

$$$$

*Q* // lookup pIC50 for N[C@H]1CCN([C@H](c2ccc3nnc(-c4ccc5ccc(CCO)cc5n4)n3c2)C(F)(F)F)C1 [Example 265, dihydrochloride]
*A* < 6.00

*Q* Also check Cc1cc(-c2ccc3ccc(-c4nnc5ccc([C@@H](N6CC[C@H](N)C6)C(F)(F)F)cn45)nc3c2C)n(C)n1
*A* < 6.00

* * *

pIC50: −log10 of the molar value. Counter-ions that a name gives are not always drawn.
The following are reported pIC50 results, target or system UniProtKB P11309.
measured-attribute: pIC50

Example molecules with recorded pIC50:
>  <molecule>
CCOc1cc2nc(-c3nnc4ccc([C@H](N5CCC(N)(CC)C5)C(F)(F)F)cn34)ccc2cc1F (single isomer, unassigned; diastereomer 2) [Example 245, dihydrochloride]

>  <test-value>
8.98

$$$$
>  <molecule>
CC(C)Oc1cccc2ccc(-c3nnc4ccc([C@@H](N5CC[C@@](N)(CF)C5)C(F)(F)F)cn34)nc12 (single isomer, unassigned) [Example 154, dihydrochloride]

>  <test-value>
9.24

$$$$
>  <molecule>
COC[C@@H](C)Oc1ccc2ccc(-c3nnc4ccc([C@@H](N5CC[C@H](N)C5)C(F)(F)F)cn34)nc2c1F [Example 180, dihydrochloride]

>  <test-value>
8.51

$$$$
>  <molecule>
COC[C@H](C)Oc1cccc2ccc(-c3nnc4ccc([C@@H](N5CC[C@H](N)C5)C(F)(F)F)cn34)nc12 [Example 141, dihydrochloride]

>  <test-value>
9.70

$$$$
>  <molecule>
CCC(C)(C)NC(=O)c1ccc2ccc(-c3nnc4ccc([C@@H](N5CC[C@@H](N)C5)C(F)(F)F)cn34)nc2c1 [Example 59, dihydrochloride]

>  <test-value>
9.25

$$$$

[P] CCNC(=O)Cc1cccc2ccc(-c3nnc4ccc([C@@H](N5CC[C@H](N)C5)C(F)(F)F)cn34)nc12 [Example 235, dihydrochloride]
[Q] CC1(NC(=O)c2ccc3ccc(-c4nnc5ccc([C@@H](N6CC[C@@H](N)C6)C(F)(F)F)cn45)nc3c2)CC1 [Example 55, dihydrochloride]
*Q* So which one has the bigger pIC50 here, P or Q ? API: response body contains the label of the selected item.
*A* Q

[1] N[C@@H]1[C@H]2CN(C(c3ccc4nnc(-c5ccc6cccc(OCC7CC7)c6n5)n4c3)C(F)(F)F)C[C@@H]12 (some centres unmarked) [Example 26, dihydrochloride]
[2] COCCc1cc2nc(-c3nnc4ccc([C@H](N5CC[C@](C)(N)C5)C(F)(F)F)cn34)ccc2cc1F [Example 284, dihydrochloride]
*Q* So which one has the bigger pIC50 here, 1 or 2 ? API: response body contains the label of the selected item.
*A* 2

[I] COc1cc(C)cc2ccc(-c3nnc4ccc([C@@H](N5CC[C@H](N)C5)C(F)(F)F)cn34)nc12 [Example 127, hydrochloride]
[II] COC[C@@H](C)Oc1ccc2ccc(-c3nnc4ccc([C@H](N5CC[C@](C)(N)C5)C(F)(F)F)cn34)nc2c1
[III] COCCc1ccc2ccc(-c3nnc4ccc([C@@H](N5CC[C@H](N)C5)C(F)(F)F)cn34)nc2c1F [Example 166, dihydrochloride]
[IV] COCCOc1cc(F)cc2ccc(-c3nnc4ccc([C@@H](N5CC[C@H](N)C5)C(F)(F)F)cn34)nc12 [Example 98, hydrochloride]
[V] N[C@H]1CCN([C@H](c2ccc3nnc(-c4ccc5cccc(C6(CO)CC6)c5n4)n3c2)C(F)(F)F)C1 [Example 114, dihydrochloride]
*Q* Put the entries in order of pIC50, starting with the largest number. Present the labels in the sequence the task asks for.
*A* V, II, IV, III, I
(V: 10.22, II: 9.72, IV: 9.42, III: 8.88, I: 8.48)
